tested on: HepG2; experiment: GSK_TCMDC: Percent inhibition of human HepG2 cell line. Test compounds present at 10uM.; assay type: functional
MEASURED_PROPERTY: Inhibition (%)

[[record]]
molecule = "CN(C)CC1CCCN1Cc1ccccc1-c1cnn(C)c(=O)c1Oc1cccc(C#N)c1.O=C(O)C(F)(F)F (stereo unspecified)"
measurement_unit = "%"
observed_value = 26

[[record]]
molecule = "O=C(/C=C/c1ccc(Cl)c(Cl)c1)NCCCCCN1CC[C@H](NC(=O)Nc2ccc(Oc3ccccc3)cc2)C1"
measurement_unit = "%"
observed_value = 47

[[record]]
molecule = "O=C(NCC1CCN(CC2CCCCC2)C1)c1cc(-c2cccc(C(F)(F)F)c2)cs1.O=C(O)C(F)(F)F (stereo unspecified)"
measurement_unit = "%"
observed_value = 47

[[record]]
molecule = "O=C(CNC(=O)c1ccc(O)cc1)Nc1cccc(-c2cccc(-c3nc4cc(C(F)(F)F)ccc4[nH]3)c2)c1"
measurement_unit = "%"
observed_value = 63

[[record]]
molecule = "Cc1[nH]c(-c2ccc(F)cc2)cc1C(=O)NC1CCN(Cc2ccccc2)CC1"
measurement_unit = "%"
observed_value = 6

[[record]]
molecule = "Nc1ncc(-c2ccsc2)cc1-c1nc2ccccc2[nH]1"
measurement_unit = "%"
observed_value = 33

[[record]]
molecule = "CCCN(Cc1nnc(-c2cccs2)o1)C(=O)C1COc2ccccc2O1 (stereo unspecified)"
measurement_unit = "%"
observed_value = 1

[[record]]
molecule = "Fc1ccc2[nH]c(-c3cccc(-c4cccc(CNCc5cnn(-c6ccccc6)n5)c4)c3)nc2c1.O=C(O)C(F)(F)F"
measurement_unit = "%"
observed_value = 18

[[record]]
molecule = "O=C(Nc1ccc(Oc2ccc(OC(F)(F)F)cc2)cc1)c1ccco1"
measurement_unit = "%"
observed_value = 5

[[record]]
molecule = "Cc1ccc(F)c(OCC2CCN(c3ccc(C(=O)NC4CC4)cn3)CC2)c1"
measurement_unit = "%"
observed_value = 4

[[record]]
molecule = "O=C(Nc1cccc(OC2CCN(Cc3ccc(F)cc3)CC2)c1)c1ccc(C(F)(F)F)cc1.O=C(O)C(F)(F)F"
measurement_unit = "%"
observed_value = 28

[[record]]
molecule = "COc1ccc2nccc([C@@H](O)CN3CCC(NCc4cc5ccccn5n4)CC3)c2c1.O=C(O)C(=O)O"
measurement_unit = "%"
observed_value = 7

[[record]]
molecule = "O=C(Cn1c(SCc2cccc(F)c2F)cc(=O)c2ccccc21)N(CCc1c[nH]cn1)Cc1ccc(-c2ccc(C(F)(F)F)cc2)cc1"
measurement_unit = "%"
observed_value = 18

[[record]]
molecule = "CN1CCCN(Cc2cccc(-c3cccc(NS(=O)(=O)c4cccc5cccnc45)c3)c2)CC1.O=C(O)C(F)(F)F"
measurement_unit = "%"
observed_value = 21

[[record]]
molecule = "Cc1cccc2nc(-c3ccc(-c4cccc(CNCCc5ccncc5)c4)s3)[nH]c12.O=C(O)C(F)(F)F"
measurement_unit = "%"
observed_value = 11

[[record]]
molecule = "CC(=O)c1c(C)[nH]c(C(=O)Nc2ccc(-c3nc4ccc(C)cc4s3)cc2)c1C"
measurement_unit = "%"
observed_value = 11

[[record]]
molecule = "CCN(CC)CCCC(C)Nc1c(-c2ccc(Br)cc2)cnc2ccccc12 (stereo unspecified)"
measurement_unit = "%"
observed_value = 7

[[record]]
molecule = "Cc1cccc2nc(-c3cccc(-c4cccc(CN5CCN(c6ccncc6)CC5)c4)c3)[nH]c12.O=C(O)C(F)(F)F"
measurement_unit = "%"
observed_value = 47

[[record]]
molecule = "CC1CCCCN1Cc1cccc(-c2c[nH]c3nc(NC4CCCC4)ncc23)c1.O=C(O)C(F)(F)F (stereo unspecified)"
measurement_unit = "%"
observed_value = 0

[[record]]
molecule = "COc1ccc(C(=O)NCC(C)(C)c2nc(-c3ccc(Cl)c(O)c3)c(-c3ccncc3)[nH]2)cc1OCCN(C(C)C)C(C)C.Cl"
measurement_unit = "%"
observed_value = 62

[[record]]
molecule = "CNC(=O)CNC(=O)COc1cccc2ccccc12"
measurement_unit = "%"
observed_value = 3

[[record]]
molecule = "Cc1cc(C2CCN(CCCCNC(=O)c3ccc(-c4ccc(C(F)(F)F)cc4)cc3)CC2)c(C)cc1OCC#N"
measurement_unit = "%"
observed_value = 40

[[record]]
molecule = "NC1CCN(CCNCc2cccc(-c3ccc(-c4nc5cc(F)ccc5[nH]4)cc3)c2)C1.O=C(O)C(F)(F)F (stereo unspecified)"
measurement_unit = "%"
observed_value = 8

[[record]]
molecule = "O=S(=O)(NC1=NCCC1)c1cccc(Nc2nc(C(F)(F)F)nc3ccccc23)c1"
measurement_unit = "%"
observed_value = 6

[[record]]
molecule = "Cc1noc(C)c1-c1ccc2c(Nc3ccccc3N3CCOCC3)c(C(=O)NCc3ccccc3)cnc2c1.Cl"
measurement_unit = "%"
observed_value = 23

[[record]]
molecule = "CCCCCCCc1c(C)nc2cccc(OC)c2c1O"
measurement_unit = "%"
observed_value = 43

[[record]]
molecule = "Cc1ccc(O)cc1Nc1ccnc2ccc(C(C)(C)C)cc12"
measurement_unit = "%"
observed_value = 6

[[record]]
molecule = "O=C1NC(=O)C(c2ccc(Cl)cc2)=C1Nc1cccc(S(=O)(=O)C(F)(F)F)c1"
measurement_unit = "%"
observed_value = 1

[[record]]
molecule = "Cl.Cn1ccc(-c2cccc(Nc3ccnc4cc(-c5nccs5)ccc34)c2)n1"
measurement_unit = "%"
observed_value = 39

[[record]]
molecule = "c1ccc(CNc2nc(NCCN3CCCCC3)nc3ccccc23)cc1"
measurement_unit = "%"
observed_value = 19

[[record]]
molecule = "COc1ccc(-c2ccc(NC(=O)c3ccc(C#N)cc3)cc2)cc1CN1CCC(O)CC1.O=C(O)C(F)(F)F"
measurement_unit = "%"
observed_value = 24

[[record]]
molecule = "Cc1cc(N2CCN(C3CCCCC3)CC2)nc2cccc(O)c12"
measurement_unit = "%"
observed_value = 12

[[record]]
molecule = "CC(C)Nc1cc(C(=O)N[C@@H](Cc2ccccc2)[C@H](O)CNCc2cccc(C(F)(F)F)c2)c(F)c(N2CCCCS2(=O)=O)c1.O=CO"
measurement_unit = "%"
observed_value = 0

[[record]]
molecule = "COc1cccc(CN2CCCN(Cc3cccc(NC(=O)c4ccc(-c5ccccc5)cc4)c3)CC2)c1.O=C(O)C(F)(F)F"
measurement_unit = "%"
observed_value = 35

[[record]]
molecule = "CCc1ccc(CN2CCC(C(=O)Nc3ccc(-c4nc5ccccc5[nH]4)cc3)CC2)o1"
measurement_unit = "%"
observed_value = 29

[[record]]
molecule = "Cc1ccccc1/N=C1\\NC(=S)N(c2cccc(C(F)(F)F)c2)C12CCC(C(C)(C)C)CC2 (stereo unspecified)"
measurement_unit = "%"
observed_value = 9


* * *

tested on: Plasmodium falciparum; test: GSK_TCMDC: Inhibition of Plasmodium falciparum Dd2 in whole red blood cells, using parasite LDH activity as an index of growth. Test compounds present at 2uM; format: functional
Entry class follows Inhibition: low class (below 20%), middle class (20% to below 70%), high class (70% or more)

[[record]]
compound = "CC(C)N1CCN(C(CN2CCN(CCCOc3cccc(-c4ccccc4)c3)CC2)c2ccc(F)cc2)CC1.Cl (stereo not drawn)"
system_under_test = "Plasmodium falciparum"
group = "high class"

[[record]]
compound = "CCCNC(=O)c1ccnc(-c2ccc(CNC3Cc4ccccc4C3)cc2)c1.O=C(O)C(F)(F)F"
system_under_test = "Plasmodium falciparum"
group = "middle class"

[[record]]
compound = "COc1cccc(-c2ccc(C(=O)NCC3CCCN(Cc4cccc(C(F)(F)F)c4)C3)s2)c1.O=C(O)C(F)(F)F (stereo not drawn)"
system_under_test = "Plasmodium falciparum"
group = "low class"

[[record]]
compound = "CN(C)CCNCc1cccc(-c2ccc3c(Nc4cc(O)c(Cl)cc4F)ccnc3c2)c1"
system_under_test = "Plasmodium falciparum"
group = "middle class"

[[record]]
compound = "CCNc1cc(C(=O)N[C@@H](Cc2ccccc2)[C@H](O)CNC(C)(C)Cc2cccc(Cl)c2)cc(N2CCCCS2(=O)=O)c1.Cl"
system_under_test = "Plasmodium falciparum"
group = "high class"

[[record]]
compound = "COc1cc(Nc2nccc(N3CCC(NC(=O)Nc4cccc(C(C)=O)c4)C3)n2)cc(OC)c1OC (stereo not drawn)"
system_under_test = "Plasmodium falciparum"
group = "middle class"

[[record]]
compound = "Cc1c(CNCCCNc2nc3cscc3[nH]2)sc(C(F)F)c1Br.Cl"
system_under_test = "Plasmodium falciparum"
group = "low class"

[[record]]
compound = "Cc1cc(N[C@@H](Cc2ccccc2)C(=O)NCCCOC(C)C)nc(NCC2CCCCC2)n1.O=C(O)C(F)(F)F"
system_under_test = "Plasmodium falciparum"
group = "middle class"

[[record]]
compound = "O=C(/C=C/c1ccc(Cl)c(Cl)c1)NCCCCCN1CCN(C(=O)Nc2ccc(OC(F)F)cc2)CC1"
system_under_test = "Plasmodium falciparum"
group = "low class"

[[record]]
compound = "CCCNC(=O)Nc1ccc(N(C)c2ccnc(NC3CC3)n2)cc1"
system_under_test = "Plasmodium falciparum"
group = "high class"

[[record]]
compound = "CC1(C)N=C(N)N=C(N)N1c1ccc(I)cc1.Cl"
system_under_test = "Plasmodium falciparum"
group = "low class"

[[record]]
compound = "COc1ccc(N2CCN(CCCCNC(=O)c3ccc(NC(=O)c4cccc(Cl)c4)cc3)CC2)c(OC)c1"
system_under_test = "Plasmodium falciparum"
group = "middle class"

[[record]]
compound = "CN(C)c1ccc(-c2csc(C(=O)NCC3CCN(CCC(C)(C)C)C3)c2)cc1.O=C(O)C(F)(F)F (stereo not drawn)"
system_under_test = "Plasmodium falciparum"
group = "low class"

[[record]]
compound = "COC(=O)c1ccc(NC(=O)Nc2ccc(Cn3ncc(N4CCCNCC4)c(Cl)c3=O)cc2)cc1.O=C(O)C(F)(F)F"
system_under_test = "Plasmodium falciparum"
group = "middle class"

[[record]]
compound = "Cc1ccc(C)c(NC(=O)CC2C(=O)N(c3ccccc3)C(=S)N2Cc2ccco2)c1 (stereo not drawn)"
system_under_test = "Plasmodium falciparum"
group = "high class"

[[record]]
compound = "CCc1cn(CCCOC)c2ccc(C(=O)N[C@@H](Cc3ccccc3)[C@H](O)CNCc3cccc(C(F)(F)F)c3)cc12"
system_under_test = "Plasmodium falciparum"
group = "high class"

[[record]]
compound = "CC12CN3CC(C)(CN(C1)C3c1cc(Br)ccc1O)C2O (stereo not drawn)"
system_under_test = "Plasmodium falciparum"
group = "low class"


The measurements presented in this section are drawn from ChEMBL document CHEMBL1157539.
